- experimental-system: T1, human MSLN-R3-his protein (human, UniProt Q13421 487-598)
- T1 construct: Region 3 of human mesothelin, made in HEK293E cells, His-tagged; also called human MSLN-R3 protein; hMSLN-R3-his; not shown: His tag
- T1 sequence (Q13421 495-606): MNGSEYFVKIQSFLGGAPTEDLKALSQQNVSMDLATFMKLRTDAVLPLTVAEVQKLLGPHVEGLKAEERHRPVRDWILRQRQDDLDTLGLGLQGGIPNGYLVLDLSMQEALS
- test-summary: ELISA on coated MSLN-R3; antibody 0.01 nM
measurement-type: OD450 (OD450)
Write the value in OD450 as a bare number.

Prompt: Which measured OD450 value corresponds to S009-F8-31.22 (antibody, human IgG1, kappa, V domains shown) VH: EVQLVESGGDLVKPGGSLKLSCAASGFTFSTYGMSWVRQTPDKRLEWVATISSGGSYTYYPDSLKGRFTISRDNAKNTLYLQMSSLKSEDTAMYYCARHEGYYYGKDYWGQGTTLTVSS VL: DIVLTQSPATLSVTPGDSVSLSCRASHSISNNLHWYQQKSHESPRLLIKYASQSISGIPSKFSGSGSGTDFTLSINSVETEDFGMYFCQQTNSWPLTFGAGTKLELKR ?
Response: 0.04

Prompt: Which measured OD450 value corresponds to S009-F8-13.8 (antibody, human IgG1, kappa, V domains shown) VH: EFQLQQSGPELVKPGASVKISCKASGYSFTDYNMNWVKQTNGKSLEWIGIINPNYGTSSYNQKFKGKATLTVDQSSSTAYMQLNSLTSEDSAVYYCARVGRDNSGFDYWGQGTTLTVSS VL: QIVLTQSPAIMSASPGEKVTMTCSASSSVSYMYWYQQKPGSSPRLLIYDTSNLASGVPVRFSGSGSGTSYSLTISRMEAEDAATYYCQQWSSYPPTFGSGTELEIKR ?
Response: 0.04

Prompt: Which measured OD450 value corresponds to S009-F8-12.13 (antibody, human IgG1, kappa, V domains shown) VH: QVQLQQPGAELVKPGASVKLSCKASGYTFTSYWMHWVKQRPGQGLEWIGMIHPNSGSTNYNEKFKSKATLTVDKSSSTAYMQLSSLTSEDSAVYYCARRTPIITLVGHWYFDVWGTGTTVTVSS VL: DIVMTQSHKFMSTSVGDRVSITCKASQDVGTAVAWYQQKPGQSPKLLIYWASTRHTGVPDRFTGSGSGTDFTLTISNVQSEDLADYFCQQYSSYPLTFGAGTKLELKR ?
Response: 0.04
